Method summary: chemical genetic growth profiling, strain panel (AID 1159580);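 further: tested at 20 µM; growth read once vehicle control cultures reached saturation at 30 °C; 1 = growth at the plate median or of vehicle wells; lower values mean less growth of the strain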
Experimental setup: S. cerevisiae deletion strains, growth OD, locus YNL006W, strain LST8, hits give low values
About 2,000 (36%) of roughly 5,500 compounds were called active. Another 18% or so got no clear call; they are omitted. This is one part of the list.
Catalogue of normalized growth values

Compound	normalized growth
O=C(NNc1ccc(Cl)cc1)c1ccc(F)cc1F	0.968
S=C(Nc1cc(Cl)c(Cl)cc1Cl)Nc1ccccc1Br	0.984
Cc1ccc(N2C(=O)CSC2c2ccc(Cl)c(Cl)c2)cc1Cl (stereo not given)	0.976
COc1ccc(CC2CCC(=NOC(=O)c3ccc(C(C)(C)C)cc3)CC2)cc1 (stereo not given)	1
O=C(Nc1ccc(Cl)cc1)O/N=C\c1ccn(-c2ccccc2)n1	0.954
